The measurements presented in this section are drawn from ChEMBL document CHEMBL2169772.

logP reference
- Test Protocol: Lipophilicity, log P of the compound
- Format: physicochemical
- Test Conditions: octanol/water
Just the number.

1. C[C@H](O)C(=O)N1CCC(CCn2c(Sc3cc4c(cc3Br)OCO4)nc3c(N)ncnc32)CC1	3.32

Field request: logP | item: Nc1ncnc2c1nc(Sc1cc3c(cc1Br)OC(F)(F)O3)n2CCC1CCN(C=O)CC1
4.82

Field request: logP | item: Nc1ncnc2c1nc(Sc1cc3c(cc1Br)OCO3)n2CCC1CCN(C=O)CC1
3.42

* * *

CLH reference
- Tested on: Mus musculus
- Test Protocol: Hepatic clearance in Swiss nude mouse at 2.5 mg/kg, iv by LC-ESI-MS/MS method
- Type: ADME, organism-based, Liver
- Design: dose 2.5 mg/kg, route intravenous
- Test Conditions: in vivo
# unit: mL/min/kg | format: bare number

Some entries whose results are on file:
1. Nc1ncnc2c1nc(Sc1cc3c(cc1Br)OCO3)n2CCC1CCN(C(=O)CO)CC1	72.65
2. Nc1ncnc2c1nc(Sc1cc3c(cc1Br)OCO3)n2CCC1CCN(C=O)CC1	31.65
3. Nc1ncnc2c1nc(Sc1cc3c(cc1Br)OCCO3)n2CCC1CCN(C(=O)CO)CC1	80.55
4. C[C@@H](O)C(=O)N1CCC(CCn2c(Sc3cc4c(cc3Br)OCO4)nc3c(N)ncnc32)CC1	25.22
5. Nc1ncnc2c1nc(Sc1cc3occc3cc1Br)n2CCC1CCN(C=O)CC1	47.35

Lab note: need CLH with Mus musculus for entry C[C@H](O)C(=O)N1CCC(CCn2c(Sc3cc4c(cc3Br)OCO4)nc3c(N)ncnc32)CC1 , please look it up.
19.78

Lab note: need CLH with Mus musculus for entry C[C@H](O)C(=O)N1CCC(CCn2c(Sc3cc4c(cc3Br)OCCO4)nc3c(N)ncnc32)CC1 , please look it up.
28.53

Lab note: need CLH with Mus musculus for entry Nc1ncnc2c1nc(Sc1cc3c(cc1Br)OCCO3)n2CCC1CCN(C=O)CC1 , please look it up.
43.08

Lab note: need CLH with Mus musculus for entry C[C@@H](O)C(=O)N1CCC(CCn2c(Sc3cc4c(cc3Br)OCCO4)nc3c(N)ncnc32)CC1 , please look it up.
27.32
